Value source: patent US20170145112A1

Provide the recorded koff for the entries that follow.
Molecular target: T1, Human complement Factor D, mature (human, UniProt P00746 27-253)
T1 construct: In the TR-FRET assay the factor D was bought from Complement Technology; In the hemolysis assay it was the factor D of C1q-depleted human serum; also called human Factor D; hFD
T1 sequence (P00746 27-253): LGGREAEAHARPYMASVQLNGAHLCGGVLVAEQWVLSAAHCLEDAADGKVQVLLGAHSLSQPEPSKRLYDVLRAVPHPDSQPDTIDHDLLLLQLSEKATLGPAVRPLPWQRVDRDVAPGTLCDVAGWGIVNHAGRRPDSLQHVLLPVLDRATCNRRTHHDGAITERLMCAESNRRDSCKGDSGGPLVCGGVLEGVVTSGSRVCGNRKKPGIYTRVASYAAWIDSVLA
Assay: SPR (Biacore T200): Fab captured with anti-huFab kit, human Factor D injected, 25 C, 1:1 model;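 note: sensorgrams were corrected by subtracting a blank injection of running buffer before fitting kinetic and affinity constants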
Express your answer in s⁻¹, writing the number without its unit.

*Q* Need koff of hu20D12.v2.6 Fab (Fab, V domains shown) VH: EVQLVQSGAEVKKPGASVKVSCKASGYTFTSYYMYWVRQAPGQGLEWIGEINPTSGGTNFNEKFKSRATLTVDTSTSTAYLELSSLRSEDTAVYYCAREGGFAYWGQGTLVTVSS VL: DIQMTQSPSSLSASVGDRVTITCKASQNVDTDVAWFQQKPGKAPKGLISSASSRYSGVPSRFSGSGSGTDFTLTISSLQPEDFATYYCQQYNNYPLTFGQGTKVEIKR , thanks.
*A* 0.0003

*Q* Same read-out for hu20D12.v2.0 Fab (Fab, V domains shown, Fab expressed in E. coli; also called Hu20D12.v1.N54S; hu20D12.v1.N54S) VH: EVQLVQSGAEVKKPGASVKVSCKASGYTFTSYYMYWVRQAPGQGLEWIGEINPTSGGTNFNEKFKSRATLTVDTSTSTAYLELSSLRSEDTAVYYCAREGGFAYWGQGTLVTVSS VL: DIQMTQSPSSLSASVGDRVTITCKASQNVDTDVAWFQQKPGKAPKGLIYSASSRYSGVPSRFSGSGSGTDFTLTISSLQPEDFATYYCQQYNNYPLTFGQGTKVEIKR ?
*A* 0.00055
